The reported measurements were obtained from patent US12325708B2.

target: A1 receptor (Homo sapiens); construct: purchased; assay: Radioligand receptor binding assay, A1 receptor; settings: cell membranes overexpressing A1 receptor, read-out: Potency Ki A1
Sequence (P30542 whole entry): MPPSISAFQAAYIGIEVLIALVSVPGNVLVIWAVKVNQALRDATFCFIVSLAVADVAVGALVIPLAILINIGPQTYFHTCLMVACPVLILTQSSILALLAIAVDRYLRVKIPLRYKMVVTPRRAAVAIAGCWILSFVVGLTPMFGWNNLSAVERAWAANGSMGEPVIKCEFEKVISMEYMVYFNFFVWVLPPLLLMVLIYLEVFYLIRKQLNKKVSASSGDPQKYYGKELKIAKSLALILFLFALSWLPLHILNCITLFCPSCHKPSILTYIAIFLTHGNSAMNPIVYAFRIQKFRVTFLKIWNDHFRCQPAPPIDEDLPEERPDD
measuredMetric: Ki (µM)
Answers are plain numbers, in µM.

compound	measuredMetric	uom	number
COCCOc1cnc(N2CCN(CCN(C)c3cc4nc(-c5ncco5)nn4c(N)n3)CC2)c(F)c1 [Compound 4]	Ki	µM	14

Can you give me Ki for all of these, one by one?
1. COCCOc1ccc(N2CCN(CCN(C)c3cc4nc(-c5ncco5)nn4c(N)n3)CC2)cc1 [Compound 1]
2. COCCOc1cnc(N2CCN(CCN(C)c3cc4nc(-c5ncco5)nn4c(N)n3)CC2)nc1 [Compound 3]

A.
1. 50
2. 20.1

Lab entry: A1 receptor (Homo sapiens) assay, compound COCCOc1ccc(N2CCN(CCN(C)c3cc4nc(-c5ccco5)nn4c(N)n3)CC2)cc1 [Reference compound, reference compound] , Ki = 1.27

---

assay: Plasma pharmacokinetic parameters following intravenous (IV) or oral (PO) administration in rats; assay type: in vivo, Sprague-Dawley rats; conditions: male, Sprague-Dawley, rat, plasma, iv, 0.5 mg/kg, IV 0.5 mg/kg, injectable water, read-out: Cmax
measuredMetric: Cmax (ng/mL)
Answers are plain numbers, in ng/mL.

compound	measuredMetric	uom	number
COCCOc1cnc(N2CCN(CCN(C)c3cc4nc(-c5ncco5)nn4c(N)n3)CC2)c(C(F)(F)F)c1 [Compound 19]	Cmax	ng/mL	1020

Kindly review the next compound as well.
// Cmax value for COCCOc1ccc(N2CCN(CCN(C)c3cc4nc(-c5ncco5)nn4c(N)n3)CC2)cc1 [Compound 1] : 311

---

assay: Permeability Caco-2 Papp and efflux ratio; format: in vitro ADME; details: human
measuredMetric: Papp (×10⁻⁶ cm/s)
Give bare numbers, in ×10⁻⁶ cm/s.

// Papp value for `COCCOc1ccc(N2CCN(CCN(C)c3cc4nc(-c5ncco5)nn4c(N)n3)CC2)cc1` : 14.5

---

test: Plasma pharmacokinetic parameters following intravenous (IV) or oral (PO) administration in rats; assay type: in vivo, Sprague-Dawley rats; details: male, Sprague-Dawley, rat, plasma, 2.5 mg/kg; Table 6; oral (PO) administration essentially as described in Example 28
measuredMetric: AUC (ng·h/mL)
Numbers only, in ng·h/mL.

sampleSmiles	AUC / ng·h/mL
[2H]C([2H])([2H])OCCOc1ccc(N2CCN(CCN(C)c3cc4nc(-c5ncco5)nn4c(N)n3)CC2)c(F)c1	819
COCCOc1ccc(N2CCN(CCN(C)c3cc4nc(-c5ncco5)nn4c(N)n3)CC2)c(Cl)c1	1160
COCCOc1cnc(N2CCN3[C@H](CC[C@H]3CN(C)c3cc4nc(-c5ncco5)nn4c(N)n3)C2)c(F)c1	429

Can you give me AUC for all of these, one by one?
1. COCCOc1ccc(N2CCN(CCN(C)c3cc4nc(-c5ncco5)nn4c(N)n3)CC2)c(OC)c1
2. [2H]C([2H])([2H])N(CCN1CCN(c2ccc(OCCOC)cc2)CC1)c1cc2nc(-c3ncco3)nn2c(N)n1
3. [2H]C([2H])([2H])OC([2H])([2H])C([2H])([2H])Oc1ccc(N2CCN(CCN(c3cc4nc(-c5ncco5)nn4c(N)n3)C([2H])([2H])[2H])CC2)cc1
4. [2H]C([2H])([2H])OC([2H])([2H])C([2H])([2H])Oc1ccc(N2CCN(CCN(C)c3cc4nc(-c5ncco5)nn4c(N)n3)CC2)cc1

A.
406
852
900
1000

---

For each record, write down the corresponding AUC(0-inf).
assay: Plasma pharmacokinetic parameters following intravenous (IV) or oral (PO) administration in rats; type: in vivo, Sprague-Dawley rats; details: male, Sprague-Dawley, rat, plasma, po, 2.5 mg/kg, PO 2.5 mg/kg via gavage, injectable water
Answers are plain numbers, in ng·h/mL.

Below: 3 compounds and their reported AUC(0-inf).
sampleSmiles	uom	AUC(0-inf)
COCCOc1cnc(N2CCN(CCN(C)c3cc4nc(-c5ncco5)nn4c(N)n3)CC2)c(F)c1	ng·h/mL	978
COCCOc1ccc(N2CCN(CCN(C)c3cc4nc(-c5ncco5)nn4c(N)n3)CC2)cc1	ng·h/mL	1280
COCCOc1cnc(N2CCN(CCN(C)c3cc4nc(-c5ncco5)nn4c(N)n3)CC2)c(C(F)(F)F)c1	ng·h/mL	5050

// AUC(0-inf) value for `COCCOc1cnc(N2CCN(CCN(C)c3cc4nc(-c5ncco5)nn4c(N)n3)CC2)c(Cl)c1` : 1480

---

assay: Brain-to-plasma ratio (B/P) after administration; assay type: in vivo, Sprague-Dawley rats; conditions: Sprague-Dawley, rat, oral, 2.5 mg/kg; Table 6; brain-to-plasma ratio at 1 h
For each record, write down the corresponding Kp at 1 h.
Numbers only.

Below: 3 compounds and their reported Kp at 1 h.
sampleSmiles	Kp at 1 h
[2H]C([2H])([2H])OC([2H])([2H])C([2H])([2H])Oc1ccc(N2CCN(CCN(c3cc4nc(-c5ncco5)nn4c(N)n3)C([2H])([2H])[2H])CC2)cc1	0.09
COCCOc1cnc(N2CCN3[C@H](CC[C@H]3CN(C)c3cc4nc(-c5ncco5)nn4c(N)n3)C2)c(F)c1	0.05
[2H]C([2H])([2H])OCCOc1ccc(N2CCN(CCN(C)c3cc4nc(-c5ncco5)nn4c(N)n3)CC2)c(F)c1	0.09

// Kp at 1 h value for `[2H]C([2H])([2H])N(CCN1CCN(c2ccc(OCCOC)cc2)CC1)c1cc2nc(-c3ncco3)nn2c(N)n1` : 0.05

---

test: Plasma pharmacokinetic parameters following intravenous (IV) or oral (PO) administration in rats; format: in vivo, Sprague-Dawley rats; details: male, Sprague-Dawley, rat, plasma, iv, 0.5 mg/kg, IV 0.5 mg/kg, injectable water, read-out: Vss obs
For each record, write down the corresponding Vd.

compound	measuredMetric	result
COCCOc1ccc(N2CCN(CCN(C)c3cc4nc(-c5ncco5)nn4c(N)n3)CC2)cc1 [Compound 1]	Vd	2.17 to 3.44 L/kg
COCCOc1cnc(N2CCN(CCN(C)c3cc4nc(-c5ncco5)nn4c(N)n3)CC2)c(Cl)c1 [Compound 14]	Vd	1.02 L/kg
COCCOc1cnc(N2CCN(CCN(C)c3cc4nc(-c5ncco5)nn4c(N)n3)CC2)c(F)c1 [Compound 4]	Vd	1.93 L/kg

// Vd value for COCCOc1cnc(N2CCN(CCN(C)c3cc4nc(-c5ncco5)nn4c(N)n3)CC2)c(C(F)(F)F)c1 [Compound 19] : 0.635 L/kg

---

experiment: Plasma pharmacokinetic parameters following intravenous (IV) or oral (PO) administration in rats; type: in vivo, Sprague-Dawley rats; settings: male, Sprague-Dawley, rat, plasma, po, 2.5 mg/kg, Table 6; oral (PO) administration essentially as described in Example 28
measuredMetric: bioavailability (%)
Give bare numbers, in %.

sampleSmiles	uom	bioavailability
COCCOc1cnc(N2CCN3[C@H](CC[C@H]3CN(C)c3cc4nc(-c5ncco5)nn4c(N)n3)C2)c(F)c1	%	31
[2H]C([2H])([2H])OC([2H])([2H])C([2H])([2H])Oc1ccc(N2C([2H])([2H])C([2H])([2H])N(C([2H])([2H])C([2H])([2H])N(c3cc4nc(-c5ncco5)nn4c(N)n3)C([2H])([2H])[2H])C([2H])([2H])C2([2H])[2H])cc1	%	50
[2H]C([2H])(N1CCN(c2ccc(OCCOC)cc2)CC1)C([2H])([2H])N(C)c1cc2nc(-c3ncco3)nn2c(N)n1	%	65
[2H]C([2H])([2H])OC([2H])([2H])C([2H])([2H])Oc1ccc(N2CCN(CCN(c3cc4nc(-c5ncco5)nn4c(N)n3)C([2H])([2H])[2H])CC2)cc1	%	71
[2H]C([2H])([2H])OCCOc1cnc(N2CCN(CCN(C)c3cc4nc(-c5ncco5)nn4c(N)n3)CC2)c(F)c1	%	63

// bioavailability value for `[2H]C([2H])([2H])OCCOc1ccc(N2CCN(CCN(C)c3cc4nc(-c5ncco5)nn4c(N)n3)CC2)cc1` : 60

---

experiment: Permeability Caco-2 Papp and efflux ratio; assay type: in vitro ADME; conditions: human, read-out: Efflux Ratio (ER)
measuredMetric: efflux ratio
One number for each entry.

// efflux ratio value for `COCCOc1ccc(N2CCN(CCN(C)c3cc4nc(-c5ncco5)nn4c(N)n3)CC2)cc1` : 1.6

---

test: Hepatic clearance in vitro CLint, dog liver microsomes; type: in vitro ADME
measuredMetric: microsomal CLint

// microsomal CLint value for `COCCOc1ccc(N2CCN(CCN(C)c3cc4nc(-c5ncco5)nn4c(N)n3)CC2)cc1` : < 1 µL/min/mg

---

For each record, write down the corresponding bioavailability.
assay: Plasma pharmacokinetic parameters following intravenous (IV) or oral (PO) administration in rats; assay type: in vivo, Sprague-Dawley rats; details: male, Sprague-Dawley, rat, plasma, oral, 2.5 mg/kg; Table 2 summary of Example 27; values marked 1 are the average of experiments
Give bare numbers, in %.

Below: 4 compounds and their reported bioavailability.
compound	number
COCCOc1ccc(N2CCN(CCN(C)c3cc4nc(-c5ccco5)nn4c(N)n3)CC2)cc1 [Reference compound, reference compound]	34
COCCOc1ccc(N2CCN(CCN(C)c3cc4nc(-c5ncco5)nn4c(N)n3)CC2)cc1	71
COCCOc1cnc(N2CCN(CCN(C)c3cc4nc(-c5ncco5)nn4c(N)n3)CC2)c(Cl)c1	56
COCCOc1cnc(N2CCN(CCN(C)c3cc4nc(-c5ncco5)nn4c(N)n3)CC2)c(C(F)(F)F)c1	83

Kindly review the next compound as well.
// bioavailability value for `COCCOc1cnc(N2CCN(CCN(C)c3cc4nc(-c5ncco5)nn4c(N)n3)CC2)c(F)c1` : 78
